Entries and their IC50
- tested_on: soluble I-A^g7 (I-Aα–Fos / I-Aβ–Jun heterodimer) (mouse (NOD) | not stated)
- assay_protocol: antibody-capture peptide binding assay with europium-streptavidin
// note: answer is a bare numeric in µM

Example cases with answers are listed next.
Exam item: # query: IC50 of entry PVSQMRMATPLLCRP [Murine CLIP analogue with C at position 98 (P9), unlabeled]
Marked response: 40

Exam item: # query: IC50 of entry PVSQMRMATPLLHRP [Murine CLIP analogue with H at position 98 (P9), unlabeled]
Marked response: 4

Exam item: # query: IC50 of entry PVSQMRMATPLLARP [Murine CLIP analogue with A at position 98 (P9), unlabeled]
Marked response: 2

Exam item: # query: IC50 of entry PVSQMRMATPLLFRP [Murine CLIP analogue with F at position 98 (P9), unlabeled]
Marked response: 80

Exam item: # query: IC50 of entry PVSQMRMATPLLQRP [Murine CLIP analogue with Q at position 98 (P9), unlabeled]
Marked response: 25

New cases:
Exam item: # query: IC50 of entry PVSQMRMATPLLWRP [Murine CLIP analogue with W at position 98 (P9), unlabeled]
Marked response: 80

Exam item: # query: IC50 of entry PVSQMRMATPLLNRP [Murine CLIP analogue with N at position 98 (P9), unlabeled]
Marked response: 80

Exam item: # query: IC50 of entry PVSQMRMATPLLLRP [Murine CLIP analogue with L at position 98 (P9), unlabeled]
Marked response: 40

Exam item: # query: IC50 of entry PVSQMRMATPLLSRP [Murine CLIP analogue with S at position 98 (P9), unlabeled]
Marked response: 40

Exam item: # query: IC50 of entry PVSQMRMATPLLGRP [Murine CLIP analogue with G at position 98 (P9), unlabeled]
Marked response: 10
